Quick list: pKi per entry.
testSummary: Binding affinity against human Alpha-1b adrenergic receptor
pKi: −log10 of the molar value.
quantityName: pKi

In [3]: df
Out[3]:
                                 smilesdata  recordedresult
0  Brc1ccc2c(-c3c[nH]c(-c4c[nH]c5cc(Br)ccc45)n3)c[nH]c2c1            6.28
1  O=C(c1nc(-c2c[nH]c3cc(Br)ccc23)c[nH]1)c1c[nH]c2cc(O)ccc12            6.13
2  Brc1ccc2c(-c3c[nH]c(-c4c[nH]c5ccccc45)n3)c[nH]c2c1            6.77
3  Brc1ccc2c(-c3nc(-c4c[nH]c5ccccc45)c[nH]3)c[nH]c2c1            6.89
4  O=C(c1nc(-c2c[nH]c3ccccc23)c[nH]1)c1c[nH]c2cc(O)ccc12            5.94
